The measurements presented in this section are drawn from paper PMC9482650.

# subjectOfTest: NHERF4_4, Q86UT5
# Sequence (Q86UT5 464-550): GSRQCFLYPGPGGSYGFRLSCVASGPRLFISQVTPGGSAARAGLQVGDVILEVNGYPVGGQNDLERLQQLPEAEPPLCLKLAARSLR
# assay: holdup assay
# Set-up: key: below the threshold = too weak to quantify, mostly under pKd 3.1 to 4
# setupConditions: plain residues with an end cap or a label only (N-terminal biotin on a linker: ado-ado)
readoutLabel: pKd

- binder: "GTMFLRETSL [GUCY1A2, P33402]"
  pKd: "below the threshold"
- binder: "EAVTVESTSL [SLC22A11, Q9NSA0]"
  pKd: "below the threshold"
- binder: "KEKASTETEC [TRPM1, Q7Z4N2]"
  pKd: "below the threshold"
- binder: "WAKEKQHTRL [SLC17A1, Q14916]"
  pKd: "below the threshold"
- binder: "NKSEPFLTWL [WWTR1, Q9GZV5]"
  pKd: 4.21

### Prompt Return reported pKd; argument: KPDKQEEFYA [SDC3, O75056]
### Response below the threshold

### Prompt Return reported pKd; argument: ELKAEDEVQI [DCHS2, Q6V1P9]
### Response below the threshold

### Prompt Return reported pKd; argument: FHSIKQSTAV [CRHR1, P34998]
### Response 3.88

### Prompt Return reported pKd; argument: KLQNPNQSVV [TYRP1, P17643]
### Response below the threshold

### Prompt Return reported pKd; argument: VKQYADVEGF [HNRNPK, P61978]
### Response 3.72
